Item-by-item account of ΔSBP (mmHg) 24 h
- Tested on: spontaneously hypertensive rats (SHR)
- MEASUREMENT NOTES: Antihypertensive activity after acute intragastric administration in hypertensive rats (tail-cuff)
- Assay type: in vivo, rat
- CONDITION PARAMETERS: Example 10; 24 h; same doses
PARAMETER MEASURED: ΔSBP (mmHg) 24 h

>>> assay_value("LDSPSEGRAPG (Synthesized peptide P5) [peptide identified in hydrolysate 3, chemically synthesized]")
"−3 ± 4 mmHg"
>>> assay_value("TVTNPARIA (Synthesized peptide P3) [peptide identified in hydrolysate 3, chemically synthesized]")
"−5 ± 3 mmHg"
>>> assay_value("NPKLVTIV (Synthesized peptide P2) [peptide identified in hydrolysate 3, chemically synthesized]")
"−5 ± 4 mmHg"
>>> assay_value("PAGELHP (Synthesized peptide P4) [peptide identified in hydrolysate 3, chemically synthesized]")
"−3 ± 7 mmHg"
>>> assay_value("FKTTDQQTRTTVA (Synthesized peptide P1) [peptide identified in hydrolysate 3, chemically synthesized]")
"−13 ± 3 mmHg"
>>> assay_value("LDSPSEGRAPGAD (Synthesized peptide P6) [peptide identified in hydrolysate 3, chemically synthesized]")
"−2 ± 4 mmHg"

Source of measurements: patent US20230173014A1
